# Test system: P. multocida 46572
# TEST: In vivo mouse lung infection challenge model (murine efficacy model)
# RECORDED_CONDITIONS: 20 mg/kg subcutaneous, CD-1 mice, intranasal challenge, to Day 10; approximate (~%), harmonized relative to vehicle and M9
MEASUREMENT_LABEL: % Survival (%)
Answer format: numeric, % implied, no suffix.

Reported % Survival for P. multocida 46572, given CC[C@H]1OC(=O)[C@H](C)[C@@H](O[C@H]2C[C@@](C)(OC)[C@](O)(CN3CCN(C)CC3)[C@H](C)O2)[C@H](C)[C@@H](O[C@@H]2O[C@H](C)C[C@H]3[C@H]2OC(=Nc2ccccc2)N3C)[C@](C)(O)C[C@@H](C)CN[C@H](C)[C@@H](O)[C@]1(C)O (mixture of isomers) ?
43

Reported % Survival for P. multocida 46572, given CCCNC[C@]1(O)[C@H](C)O[C@@H](O[C@H]2[C@H](C)[C@@H](O[C@@H]3O[C@H](C)C[C@H]4[C@H]3OC(=Nc3ccccc3)N4C)[C@](C)(O)C[C@@H](C)CN[C@H](C)[C@@H](O)[C@](C)(O)[C@@H](CC)OC(=O)[C@@H]2C)C[C@@]1(C)OC (mixture of isomers) ?
54

Reported % Survival for P. multocida 46572, given CC[C@H]1OC(=O)[C@H](C)[C@@H](O[C@H]2C[C@@](C)(OC)[C@](O)(CNCCOC)[C@H](C)O2)[C@H](C)[C@@H](O[C@@H]2O[C@H](C)C[C@H]3[C@H]2OC(=Nc2ccc(OC)cc2)N3C)[C@](C)(O)C[C@@H](C)CN[C@H](C)[C@@H](O)[C@]1(C)O (mixture of isomers) ?
37

Reported % Survival for P. multocida 46572, given CC[C@H]1OC(=O)[C@H](C)[C@@H](O[C@H]2C[C@@](C)(OC)[C@](O)(CNCC3CC3)[C@H](C)O2)[C@H](C)[C@@H](O[C@@H]2O[C@H](C)C[C@H]3[C@H]2OC(=Nc2ccc(OC)nc2)N3C)[C@](C)(O)C[C@@H](C)CN[C@H](C)[C@@H](O)[C@]1(C)O (mixture of isomers) ?
26

Reported % Survival for P. multocida 46572, given CCCNC[C@]1(O)[C@H](C)O[C@@H](O[C@H]2[C@H](C)[C@@H](O[C@@H]3O[C@H](C)C[C@H]4[C@H]3OC(=Nc3ccc(OC)nc3)N4C)[C@](C)(O)C[C@@H](C)CN[C@H](C)[C@@H](O)[C@](C)(O)[C@@H](CC)OC(=O)[C@@H]2C)C[C@@]1(C)OC (mixture of isomers) ?
37
